Please go through the items and note down their inhibition at 1 µM.
Target: recombinant human 17β-hydroxysteroid dehydrogenase type 1 (Homo sapiens, UniProt P14061)
Construct: made in house; host or cells: Sf9 insect cells (baculovirus, Bac to Bac Expression System)
Sequence (P14061 1-328): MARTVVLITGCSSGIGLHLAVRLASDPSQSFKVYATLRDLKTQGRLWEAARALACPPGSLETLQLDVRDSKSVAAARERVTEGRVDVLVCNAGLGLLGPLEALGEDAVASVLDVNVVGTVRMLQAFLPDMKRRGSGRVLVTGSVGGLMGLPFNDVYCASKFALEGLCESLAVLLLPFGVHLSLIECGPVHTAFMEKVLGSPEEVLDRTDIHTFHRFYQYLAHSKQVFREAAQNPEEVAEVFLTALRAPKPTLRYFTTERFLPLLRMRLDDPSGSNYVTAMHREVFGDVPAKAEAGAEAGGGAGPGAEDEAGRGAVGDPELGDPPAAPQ
Assay: Inhibition of recombinant human 17β-hydroxysteroid dehydrogenase type 1 (conversion of 3H-estrone to estradiol, HPLC)
Type: biochemical
Settings: inhibitor 1 μm; 30 nM 3H-estrone, 1 mM NADPH, 30 min at RT; read-out: Inhibition of rec. 17β-HSD1 (% inhibition), 1 μm

Req: Please report the recorded inhibition at 1 µM for CN(C[C@H]1CC(=O)[C@@]2(C)CC[C@@H]3c4ccc(O)cc4CC[C@H]3[C@H]12)S(=O)(=O)c1cccc(Cl)c1 .
Resp: 80.1%

Req: Entry C[C@]12CC[C@@H]3c4ccc(O)cc4CC[C@H]3[C@@H]1[C@@H](CCCC(=O)NCc1ccccc1)CC2=O has what inhibition at 1 µM?
Resp: 82.4%

Req: // lookup inhibition at 1 µM for COc1ccc2c(c1)CC[C@H]1[C@@H]3[C@H](CCCCNC(=O)Nc4ccc(OC)c(OC)c4)CC(=O)[C@@]3(C)CC[C@H]21
Resp: 91.6%

Req: Dear colleague, I am looking for the recorded inhibition at 1 µM of the following molecule: COc1ccc2c(c1)CC[C@H]1[C@@H]3[C@H](CCCCCC(=O)NCc4ccncc4)CC(=O)[C@@]3(C)CC[C@H]21
Resp: 85.2%

Req: # input molecule: COc1ccc2c(c1)CC[C@H]1[C@@H]3[C@H](CCCCC(=O)NCc4ccccc4OC)CC(=O)[C@@]3(C)CC[C@H]21 ; wanted: its inhibition at 1 µM
Resp: 88%

Req: I have this molecule here, CCCCNC(=O)CCCCC[C@@H]1CC(=O)[C@@]2(C)CC[C@@H]3c4ccc(OC)cc4CC[C@H]3[C@H]12 , and I need its recorded inhibition at 1 µM.
Resp: 86.4%

Req: Recorded inhibition at 1 µM for COc1ccc2c(c1)CC[C@H]1[C@@H]3[C@H](CCCCOC(=O)Nc4cccc(F)c4)CC(=O)[C@@]3(C)CC[C@H]21 , please?
Resp: 67.7%

Req: What inhibition at 1 µM value was documented for this molecule, Cc1cccc(S(=O)(=O)N(C)C[C@H]2CC(=O)[C@@]3(C)CC[C@@H]4c5ccc(O)cc5CC[C@H]4[C@H]23)c1 ?
Resp: 87.3%

Req: If you can, please state the reported inhibition at 1 µM value of CN(C[C@H]1CC(=O)[C@@]2(C)CC[C@@H]3c4ccc(O)cc4CC[C@H]3[C@H]12)S(=O)(=O)c1cccs1 .
Resp: 91.8%

Req: So what does the record say about inhibition at 1 µM for COc1ccc2c(c1)CC[C@H]1[C@@H]3[C@H](CCCCC(=O)NCc4ccc5c(c4)OCO5)CC(=O)[C@@]3(C)CC[C@H]21 ?
Resp: 90.5%

Req: Look at this molecule and give its reported inhibition at 1 µM. COc1ccc2c(c1)CCC1C2CC[C@]2(C)C(=O)C[C@H](C(=O)N(C)Cc3cccc4ccccc34)C12 (stereo partly shown)
Resp: 41.4%

Req: Bench note: what inhibition at 1 µM did COc1ccc2c(c1)CC[C@H]1[C@@H]3[C@H](CCCCC(=O)NCc4ccco4)CC(=O)[C@@]3(C)CC[C@H]21 show?
Resp: 91%

Req: Give the measured inhibition at 1 µM of Cc1cccc2c(CCNC(=O)CCC[C@@H]3CC(=O)[C@@]4(C)CC[C@@H]5c6ccc(O)cc6CC[C@H]5[C@H]34)c[nH]c12 .
Resp: 94.3%

Req: Which measured inhibition at 1 µM value corresponds to COc1ccc2c(c1)CC[C@H]1[C@@H]3[C@H](CCCCCC(=O)N4CCSCC4)CC(=O)[C@@]3(C)CC[C@H]21 ?
Resp: 85.1%

Req: Look at this molecule and give its reported inhibition at 1 µM. COc1ccc2c(c1)CC[C@H]1[C@@H]3[C@H](CCCCC(=O)NC4CC4)CC(=O)[C@@]3(C)CC[C@H]21
Resp: 75.9%

Req: // query inhibition at 1 µM value for entry C[C@]12CC[C@@H]3c4ccc(O)cc4CC[C@H]3[C@@H]1[C@@H](CNS(=O)(=O)c1ccc(F)cc1)CC2=O
Resp: 91.2%

Req: Query (molecule): C[C@]12CC[C@@H]3c4ccc(O)cc4CC[C@H]3[C@@H]1[C@H](CCCC(=O)NCc1ccccc1)CC2=O ; field requested: inhibition at 1 µM
Resp: 84.1%

Req: Please give the measured inhibition at 1 µM for this molecule: COc1ccc2c(c1)CCC1C2CC[C@]2(C)C(=O)C[C@@H](CCCC(=O)NCCc3ccc(O)cc3)C12 (stereo partly shown)
Resp: 57.8%

Req: What does the data say about its inhibition at 1 µM? Entry: COc1ccc2c(c1)CC[C@H]1[C@@H]3[C@H](CCC(=O)NCCc4ccc(O)cc4)CC(=O)[C@@]3(C)CC[C@H]21
Resp: 91.5%

Req: May I ask what inhibition at 1 µM has been recorded for COc1ccc2c(c1)CC[C@H]1[C@@H]3[C@H](CCCCC(=O)N(C)Cc4ccccc4)CC(=O)[C@@]3(C)CC[C@H]21 ?
Resp: 88.9%

Req: # input molecule: CN(C[C@H]1CC(=O)[C@@]2(C)CC[C@@H]3c4ccc(O)cc4CC[C@H]3[C@H]12)S(=O)(=O)c1ccc(F)cc1 ; wanted: its inhibition at 1 µM
Resp: 85.6%

Req: So what does the record say about inhibition at 1 µM for COc1ccc2c(c1)CC[C@H]1[C@@H]3[C@H](CCCOC(=O)Nc4ccc(C(F)(F)F)cc4)CC(=O)[C@@]3(C)CC[C@H]21 ?
Resp: 53.5%
